For each of the binders below, state its CLR/RAMP1 EC50.
target: CLR/RAMP1 receptor (UniProt Q16602 23-461; O60894 27-148, limits assumed); experiment: cell-based or functional assay
Sequence (Q16602 23-461 limits assumed, chain 1 of 2): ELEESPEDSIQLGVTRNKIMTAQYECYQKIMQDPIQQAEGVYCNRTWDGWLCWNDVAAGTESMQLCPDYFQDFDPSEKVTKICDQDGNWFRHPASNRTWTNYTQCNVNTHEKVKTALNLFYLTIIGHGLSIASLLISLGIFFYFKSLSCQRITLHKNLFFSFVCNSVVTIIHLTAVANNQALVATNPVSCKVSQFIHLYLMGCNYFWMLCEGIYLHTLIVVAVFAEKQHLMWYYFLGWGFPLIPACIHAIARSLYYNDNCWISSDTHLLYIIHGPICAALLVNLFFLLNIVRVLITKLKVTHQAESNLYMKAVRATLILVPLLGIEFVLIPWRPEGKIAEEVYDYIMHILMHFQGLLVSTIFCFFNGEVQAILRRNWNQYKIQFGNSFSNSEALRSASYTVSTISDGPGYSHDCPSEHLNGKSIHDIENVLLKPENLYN
Sequence (O60894 27-148 limits assumed, chain 2 of 2): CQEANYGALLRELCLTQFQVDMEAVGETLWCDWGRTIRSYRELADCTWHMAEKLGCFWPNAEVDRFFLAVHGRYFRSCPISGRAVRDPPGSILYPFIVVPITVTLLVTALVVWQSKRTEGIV
Square brackets hold non-standard residues; d marks the D form. Ends that are not written are not given here. * marks the point of attachment. Palmitoyl = CCCCCCCCCCCCCCCC(=O)*; AEEA = NCCOCCOCC(=O)O
The reply should contain only the number, in nM.

Memo: Palmitoyl-KGCRFGTCTVQKLAHQIYQFTDKDKDNVAPVDPSSPHSY-NH2 (ends and bridges not checked) [SEQ ID NO: 34] , reported CLR/RAMP1 EC50: 0.2

Memo: Palmitoyl-KTKKTLRTGCRFGTCTVQKLAHQIYQFTDKDKDNSAPVDPSSPHSY-NH2 (ends and bridges not checked) [SEQ ID NO: 38] , reported CLR/RAMP1 EC50: 0.5

Memo: KGCRFGTCTVQKLAHQIYQFTDKDVAPRSKISPQGY (miniPEG- at N-terminus; K(PAL); (D-Val) in ...GTCT(D-Val)QKL...; -NH2) [SEQ ID NO: 211] , reported CLR/RAMP1 EC50: 8

Memo: KGCRFGTCTVQKLAHQIYQFTDKDKDNVAPRSKISPQGY (Ace-PEG3- at N-terminus; K(Hexadecanoyl-isoGlu); -NH2) [SEQ ID NO: 151] , reported CLR/RAMP1 EC50: 0.5

Memo: Ac-KGCRFGTCTVQKLAHQIYQFTDKDKDNVAPVDPSSPHSY-NH2 (ends and bridges not checked) [SEQ ID NO: 60] , reported CLR/RAMP1 EC50: 16

Memo: [AEEA]K(Palmitoyl)CRFGTCTVQKLAHQIYQFTDKDKDNSAPVDPSSPHSY-NH2 (ends and bridges not checked) [SEQ ID NO: 43] , reported CLR/RAMP1 EC50: 0.5

Memo: Palmitoyl-KGCRFGTCTVQKLAHQIYQFTDKDKQDSAPVDPSSPHSY-NH2 (ends and bridges not checked) [SEQ ID NO: 35] , reported CLR/RAMP1 EC50: 0.8

Memo: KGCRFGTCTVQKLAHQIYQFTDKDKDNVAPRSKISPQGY (Ace-PEG3- at N-terminus; K([19-carboxy-nonadecanoyl]-isoGlu); -NH2) [SEQ ID NO: 155] , reported CLR/RAMP1 EC50: 0.6

Memo: miniPEG-KGCRFGTCTVQKLAHQIYQFTDKDSAPVDPSSPHSY-NH2 (cysteine pairing not given here; also: K(PAL) present, lysine not given here) [SEQ ID NO: 48] , reported CLR/RAMP1 EC50: 0.3

Memo: Ac-K(Palmitoyl)GCRFGTCTVQKLAHQIYQFTDKDKDNVAPRSKSSPHSY-NH2 (ends and bridges not checked) [SEQ ID NO: 65] , reported CLR/RAMP1 EC50: 234
